- EXPERIMENT NOTES: yeast display, Sf9 membrane polyspecificity reagent, FACS + sequencing; frameworks hold sequencing errors
ASSAY READOUT: polyreactivity (PSR sort gate)

Solved cases below.
| MONOMER SEQUENCE | polyreactivity (PSR sort gate) |
| --- | --- |
| QVQLVESGGGLVQAGGSLRISCADSGSIFGYNAMGWYRQAPGKERELVAAISWSGGRTYYADSVKGRFTISRDNAKNTVSFQMNSLKPEDTAVYYCAAPSTGTYGSDYWGHGTQVTVSS | high polyreactivity |
| QVQLVESGGGLVQAGGSLRLSCAASGFTFGGYAMGWYRQAPGKESEFVAAITGTGGNTFYADSVKGRFTISRDNAKNTVYLQMNSLKPEDTAVYYCAKTWYPWSRYGYYRRYDSWGQGTQVTVSS | low polyreactivity |
| QVQLVESGGVLVQAGGSLRLSCAASGRIFRYYAMGWYRQAPGKERELVAAISSDGSTDYADSVKGRFTISRDNAKNTVYLLMNSLKPEDTAVYYCAASVVSYGHDYWGQGTQVTVSS | low polyreactivity |
| QVQLVESGVGLVQAGGSLRLTCAASGRIFDYYAMGWSRQAPGKETELVARISRGATTNYADSVKGRFTISRDNAKNTVYLQINSLKPEDTAVYSCNARQYLAYVSWKGMGFWGQGTQVTVSS | high polyreactivity |

Shifting focus to the sequence that follows.
Task: Suppose we examine the sequence QVQLVESGGGLVQAGGSLRLSCAASGRIFRINAMGWYRQAPGKEMELVASSSRRGGNTYYADSVKGRFTISRDNAKNTVYLQMNSLKPEDTAVYYCAADTNQERTFDYWGQGTQVTVSS ; what polyreactivity (PSR sort gate) value has been reported?
Result: low polyreactivity

====

- EXPERIMENT NOTES: yeast display, Sf9 membrane polyspecificity reagent, FACS + sequencing; frameworks hold sequencing errors
ASSAY READOUT: polyreactivity (PSR sort gate)

Known polyreactivity (PSR sort gate) results, listed for orientation:
| MONOMER SEQUENCE | polyreactivity (PSR sort gate) |
| --- | --- |
| QVQLVESGGGLVQAGGSLRISCAASGSIFHDNAMGWYRQAPGKERELVAASTTSGGNTYYADSVKGRFTISRDNAKNTVYLLMNSLKPEDTAVYYCAAGQSVFASWLDNGWSAYTYYYWGQGTQVTVSS | low polyreactivity |
| QVQLVESGGGLVQAGGSLRLSCAASGSIFTRNAMGWYRQAPGKERELVARISARSGRTYYADSVKGRFTISRDNAKNTVYLQMNSLKPEDTAVYYFAVRYRGKYPFRYNYWGQGTQVTVSS | high polyreactivity |
| QVQLVESGGGLVQAGGSLRLSCAASGRNFKYYAMGWYRPAPGKERELVAAISWSGGSTYYADSVKGRFTISRDNAKNTVYLQMNSLKPEDTAVYYCATYGGLTKFRLAYDYWGQGTQVTVSS | high polyreactivity |
| QVQLVESAARLVQAGGSLRLSCAPSGNIFKGYAMGCYRQAPGKHRELVAAITSGDSTNYADSVKGRFTISRDNAKNTVYLQMNSLKPEDTGVYYCNARYSWWRSRDGSSHRPDGYWGQGTQVTVSS | high polyreactivity |
| QVQLGESGGGLVQAGGSLRLSCAASGFTFYRYTLGWYRQEPGKERELVAAITWSGGNTYYADSVKGRFTISRDNAKNTVYLQMNSLKPEDTAFYYCAAYKPYSKYNYWGQGTQVTVSS | high polyreactivity |
| QVQLVESGGGIVQAGGSLRLSWAASGRNFYRNAMGWYRQAPGKERELVAAISRSGGSTYYADSVKGRFTISRDNAKNTVYLQMNSLKAADTAVYYFNAYRYLQSGPPRYREHGSWGQGTQVNVSS | low polyreactivity |

Task: # get_value(readout='polyreactivity (PSR sort gate)', item= QVQLVESGGGLVQAGGSLRLSCAASGSIFGRYAMGWYRQAPGKERELVAAITGSGGTTYYADSVKGRFTISRDNAKNTVYLQMNSLKPEDTAVYYCAADPQVYYSGRPRYDYWGQGTQVTVSS )
Result: high polyreactivity

Task: // polyreactivity (PSR sort gate) lookup, key: QVQLVESGGGLVQAGGSLRLSCAASGRTFCRYAMGWYIQAPGKERELVASISVSGGGTYYADSVKGRFTISRDNAKNTVFLQMNSLKPQDTAVYYCAARPVYYRYRRDYWGQGTHVTVSS
Result: high polyreactivity

Task: Data request, read-out polyreactivity (PSR sort gate), for QDQLVESGGGLVHAGGSHRFSCAASGFTFGAYAMGWSRQAPGKERELVATITNSGRTYYADSVKGRFTISRDNAKNTVYLQMNSLKPEDTAVYYCAAQPDGQAMEHWGQGTQVTVSS
Result: low polyreactivity

Task: For the sequence QVQRVESAAGLVQAGGSLRLSCAASGSIFWFNSMGWSRPEPGKERELVATIRYSGCSTYYADSVKGRFTISRDNAKKTVYLLMNSLKPDDTAVYYSAAVYRYSRSGYEYWGQGTQVTVSS , what polyreactivity (PSR sort gate) is on record?
Result: high polyreactivity

Task: Any idea what polyreactivity (PSR sort gate) was measured for QVQLVESGGGIVQAGGSLRLSCAASGSTFGWYAMGWYRPAPGKERELVAAISTSGNTYYADSVKGRFTISRDNAKNTVYLQLNSLKPEDTAVYYCAKYVNPDHDYWGQGTQVTVSS ?
Result: low polyreactivity

====

- EXPERIMENT NOTES: yeast display, Sf9 membrane polyspecificity reagent, FACS + sequencing; frameworks hold sequencing errors
ASSAY READOUT: polyreactivity (PSR sort gate)

| MONOMER SEQUENCE | polyreactivity (PSR sort gate) |
| --- | --- |
| QVQLVESGGGLVQAGGSLRLSCAASGSTFGYYAMGWYRHAHGKERELVAAITGSVDSTYYADSVKGRFTISRDNAKNTVYLQMNSLKPEDTAVYYCAADTYSTYWGQGTQVTVSS | low polyreactivity |
| QVQLVESGGGLVQAGCSLRLSCAASGRTFVWYEMGWYRQATGKERELVAAINKRGTSTYYADSVKGRFTISRDNAKNTVYLQMNSLNPEVTAVYYCAVEYIYWFHSRSSYIYDYWGQGTQVTVSS | low polyreactivity |
| QVQLVESGGGLVQAGGSLRLSCAASGITLGAYAMGWYRQAPGKERELVAAISRSGGSTYYADSVKGRFTISRDNAKNTVYLQMNSLKPEDTAVYYCNAPRFVSYDYWGQGTQVTVSS | high polyreactivity |
| QVQLVESGGGLVQAGGSLRLSCAASGSIFPANAMGWYRQAPGKERELVAAINRDGITNYADSVKGRFTISRDNAKNTVYLQMNSLKPEDTAVYYCAAEFAWQWWEYGYWGQGTQVTVSS | low polyreactivity |

Task: Using the record for QVQLVESGGGLVQAGGSLRFSCAASGSTFSYYTMGWYRQAPGKERELVATISRRGASTYYADSVKGRFTISRDNAKNTVYLQMNSLKPEDTAVYYCAKSYYYGRSATRPEYDYWGQGTQVTVSS , report its polyreactivity (PSR sort gate).
Result: high polyreactivity

====

- EXPERIMENT NOTES: yeast display, Sf9 membrane polyspecificity reagent, FACS + sequencing; frameworks hold sequencing errors
ASSAY READOUT: polyreactivity (PSR sort gate)

| MONOMER SEQUENCE | polyreactivity (PSR sort gate) |
| --- | --- |
| QVQLVESWGGLVQAGGSLRLSCAASGSTIAYYVLGWYRQAPRKERELVAAINFSGDSTYYADSVKGRFTNSRDNAKNTVNLQMNSLKPEDTAVYYCAVDWGEYIDTSVKRDISYYWGQGTQVTVSS | low polyreactivity |
| QVQLVESGGGLVQAGGSLRLSCAASGLIFAHNTMGWYRQATGKERELVAAISATGDGNTYYADSLKGRFTISRDNAKNTVYLQMNSLKPEDTAVYYCNALYYDYYAEYYGESDYWGQGTQVTVSS | low polyreactivity |
| QVQLVESGGGLVQAGGSLRLSCAASGRTFSRNAMGWYRPAPGKERQLVAAIRGSGTGTYYADSVKGRFTISRDNAKNTVYLQMNSLKPEDTPVYYSNADFISTRPPKATDEDYWGQGTQVTVSS | high polyreactivity |
| QVQLVESRGGLVQAGGSLRLSCAASGSTFTYNAMGWYRQAPGKERELDAAISSDGRTYYADSVKGRFTISRDNAKNTVYLQMNSLQPEDTALYYCAAMYWFYVYPFTEYDYWGQGTQVTVSS | low polyreactivity |
| QVQLVESGGGLVQAGGSLRLSCAASGRIFAFYAMGWYRQAPGKERELVAAISWDGGSSYYADSVKGRFTISRDNAKNTVYLQMNSLKPEDTAVYDCNKDLYYAYDYWGQGTQVTVSS | low polyreactivity |

Could you now consider this next sequence?
Task: Record request: polyreactivity (PSR sort gate) value, item QVQLVESGGGLVQAGGSLRLSCAASGFIFKRYTMGWYRQAPGKERELVAAISANGGRTYYADSVKGRFTISRDNAKNTVYLQMNSLKPEDTAVYYCAATRWDYTLYGYDYWGQGTQVTVSS
Result: high polyreactivity
